Data origin: patent US9040527B2

Collected IC50 values appear next to each entry.
- assay target: PLK1 (Homo sapiens, UniProt P53350)
- Sequence (P53350 whole entry): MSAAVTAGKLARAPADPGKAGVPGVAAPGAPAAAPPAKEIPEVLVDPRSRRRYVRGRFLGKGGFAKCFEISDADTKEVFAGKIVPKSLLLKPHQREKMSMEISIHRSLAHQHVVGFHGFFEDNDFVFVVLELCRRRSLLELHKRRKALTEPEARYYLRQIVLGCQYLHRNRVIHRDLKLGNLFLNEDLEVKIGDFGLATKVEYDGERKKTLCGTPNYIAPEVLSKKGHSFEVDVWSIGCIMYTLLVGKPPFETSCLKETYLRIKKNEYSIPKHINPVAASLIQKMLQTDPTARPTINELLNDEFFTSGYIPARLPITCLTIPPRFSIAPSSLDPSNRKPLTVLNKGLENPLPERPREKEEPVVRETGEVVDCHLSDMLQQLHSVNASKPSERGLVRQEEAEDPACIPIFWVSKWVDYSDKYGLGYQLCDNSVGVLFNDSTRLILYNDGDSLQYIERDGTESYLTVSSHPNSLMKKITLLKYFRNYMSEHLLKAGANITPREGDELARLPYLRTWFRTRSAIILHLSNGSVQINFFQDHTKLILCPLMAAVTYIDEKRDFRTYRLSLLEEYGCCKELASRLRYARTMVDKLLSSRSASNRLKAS
- protocol summary: Cellular PLK1 assay in K562 cells overexpressing CDC25C
- Type: cell-based
- Parameters: endogenous in cells; host or cells: K562 (human chronic myelogenous leukemia) overexpressing CDC25C, nocodazole-arrested
- measurement parameters: nocodazole arrested, cdc25c p-Ser198 readout

# annotated cases, reported IC50 shown
compound: CC(C)c1ccc(N2CCN(C)CC2)cc1Nc1ncc(F)c(Nc2ccc3c(n2)NC(=O)CO3)n1 [compound 43]
IC50: < 0.5 µM
//
compound: CC(C)Oc1ccc(N2CCN(C)CC2)cc1Nc1ncc(F)c(Nc2ccc3c(n2)NCCO3)n1 [compound 23]
IC50: 0.5 to 5 µM
//
compound: CN1CCN(c2cccc(Nc3ncc(F)c(N(CC4CC4)c4ccc5c(n4)NCCO5)n3)c2)CC1 [compound 53]
IC50: ≥ 10 µM
//
compound: CCCN1C(=O)COc2ccc(Nc3nc(Nc4ccc(N5CCN(C)CC5)c(C(F)(F)F)c4)ncc3F)nc21 [compound 135]
IC50: ≥ 10 µM
//
compound: C#CCN1C(=O)COc2ccc(Nc3nc(Nc4cccc(N5CCN(C)CC5)c4)ncc3C)nc21 [compound 127]
IC50: < 0.5 µM
//
compound: Cc1cc(Nc2ncc(C)c(Nc3ccc4c(n3)NC(=O)C(C)(C)O4)n2)ccc1N1CCN(C)CC1 [compound 96]
IC50: ≥ 10 µM
//
compound: CN1CCN(c2cccc(Nc3ncc(F)c(Nc4ccc5c(n4)NC(=O)CO5)n3)c2)CC1 [compound 157]
IC50: < 0.5 µM
//
compound: CCOc1ccc(N2CCN(C)CC2)cc1Nc1ncc(F)c(Nc2ccc3c(n2)NC(=O)CO3)n1 [compound 49]
IC50: < 0.5 µM
//
compound: CN1CCN(c2cccc(Nc3ncc(C(F)(F)F)c(Nc4ccc5c(n4)NCCO5)n3)c2)CC1 [compound 55]
IC50: < 0.5 µM
//
compound: Cc1ccc(Nc2ncc(F)c(Nc3ccc4c(n3)NCCO4)n2)cc1N1CCN(C)CC1 [compound 22]
IC50: ≥ 10 µM

Ask: Recorded IC50 for COc1ccc(CN2C(=O)COc3ccc(Nc4nc(Nc5cccc(N6CCN(C)CC6)c5)ncc4F)nc32)cc1 [compound 123] with PLK1 (Homo sapiens, UniProt P53350), please?
Result: ≥ 10 µM

Ask: Recorded IC50 for Cc1cc(Nc2ncc(C)c(Nc3ccc4c(n3)N(C3CCCC3)C(=O)CO4)n2)ccc1N1CCN(C)CC1 [compound 117] with PLK1 (Homo sapiens, UniProt P53350), please?
Result: ≥ 10 µM
